Tested on: blackgrass (Alopecurus myosuroides)
Assay: Test A postemergence
Format: in vivo
Conditions: Alopecurus myosuroides, post-emergence, 240 h, 125 g ai/ha, postemergence; visual injury after approximately 10 d; 0 to 100 scale (0 no effect, 100 complete control); read-out: Plant response rating, Blackgrass
RESULT_TYPE: pest or weed control at 125 g/ha (%)
Entry rule: numbers only, all in %.

Which pest or weed control at 125 g/ha value belongs to O=C1NC[C@H](c2cccc3c2OC(F)(F)O3)[C@H]1C(=O)Nc1ccccc1F [Compound 754] ?
0

Please give the measured pest or weed control at 125 g/ha for this molecule: CN1C[C@H](c2ccc(C(F)(F)F)cc2)[C@@H](C(=O)Nc2ccccc2C2CC2)C1=O [Compound 747]
30

Field request: pest or weed control at 125 g/ha | item: CN1C[C@H](c2cc(F)cc(F)c2)[C@@H](C(=O)Nc2c(F)cccc2F)C1=O [Compound 759]
0

* * *

Test system: redroot pigweed (Amaranthus retroflexus)
Experiment: Test G Pre-Emergence Protocol
Assay type: in vivo
Settings: Amaranthus retroflexus, pre-emergence, 312 h, 250 g ai/ha, evaluated after 13 days, read-out: Pigweed, Redroot damage rating (100=total damage to plant; 0=no damage to plant)
RESULT_TYPE: pest or weed control at 250 g/ha (%)
Enter your answer as a number in %; do not include the unit.

Answered cases to consult:
pest or weed control at 250 g/ha for CN1C[C@H](c2ccc(F)c(C#N)c2)[C@@H](C(=O)Nc2ccccc2F)C1=O (racemic) [Compound 1468] ?
0

State the recorded pest or weed control at 250 g/ha for this entry: CN1C[C@H](c2ccc(C(F)(F)F)cc2)[C@@H](C(=O)Nc2ccc[n+]([O-])c2C(F)(F)F)C1=O (racemic) [Compound 1813]
20

Consider the compound COc1cc(OC(F)(F)F)cc(C2CN(C)C(=O)C2C(=O)Nc2cccc(F)c2F)c1 (centres unmarked) [Compound 1697] and give its measured pest or weed control at 250 g/ha.
20

Field request: pest or weed control at 250 g/ha | item: CN1C[C@H](c2ccc(C(F)(F)F)cc2)[C@@H](C(=O)Nc2ccc(F)c(F)c2)C1=O (racemic) [Compound 1412]
10

May I ask what pest or weed control at 250 g/ha has been recorded for Cc1nonc1NC(=O)[C@@H]1C(=O)N(C)C[C@H]1c1ccc(C(F)(F)F)cc1 (racemic) [Compound 1597] ?
0

Continuing:
Can you look up the measured pest or weed control at 250 g/ha of CN1C[C@@H](c2ccc(C(F)(F)F)cc2)[C@H](C(=O)Nc2ncnn2C)C1=O (racemic) [Compound 1643] for me?
0

Could you tell me which pest or weed control at 250 g/ha is on file for CN1C[C@@H](c2ccc(C(F)(F)F)cc2)[C@H](C(=O)Nc2cnccc2C(F)(F)F)C1=O (racemic) [Compound 1401] ?
90

Entry CN1C[C@H](c2ccc(C(F)(F)F)cc2)[C@@H](C(=O)Nc2ccc(F)cc2S(C)(=O)=O)C1=O (racemic) [Compound 1483] has what pest or weed control at 250 g/ha?
80

Request the reported pest or weed control at 250 g/ha associated with COc1cncc(NC(=O)[C@@H]2C(=O)N(C)C[C@H]2c2ccc(C(F)(F)F)cc2)n1 (racemic) [Compound 1565]
10

Data request, read-out pest or weed control at 250 g/ha, for Cc1c(Br)cccc1NC(=O)[C@@H]1C(=O)N(C)C[C@H]1c1ccc(C(F)(F)F)cc1 (racemic) [Compound 1619]
20

Fill in the blank: the reported pest or weed control at 250 g/ha of CN1C[C@H](c2ccc(C(C)(C)C#N)cc2)[C@@H](C(=O)Nc2ccccc2F)C1=O (racemic) [Compound 1408] is ____.
10

Which measured pest or weed control at 250 g/ha value corresponds to Cc1c(Cl)cccc1NC(=O)[C@@H]1C(=O)N(C)C[C@H]1c1ccc(C(F)(F)F)cc1 (racemic) [Compound 1607] ?
30

Param item = Cc1csc(NC(=O)[C@@H]2C(=O)N(C)C[C@H]2c2ccc(C(F)(F)F)cc2)c1C#N (racemic) [Compound 1576] ; retrieve measured pest or weed control at 250 g/ha.
20

Entry under review: CN1C[C@@H](c2ccc(C(F)(F)F)cc2)[C@H](C(=O)Nc2[nH]ncc2C#N)C1=O (racemic) [Compound 1551] . Reported pest or weed control at 250 g/ha?
0

For the compound CN1C[C@H](c2ccc(C(F)(F)F)cc2)[C@@H](C(=O)Nc2ncccc2C#N)C1=O (racemic) [Compound 1433] , what pest or weed control at 250 g/ha is on record?
0

May I ask what pest or weed control at 250 g/ha has been recorded for CSc1nnc(NC(=O)[C@@H]2C(=O)N(C)C[C@H]2c2ccc(C(F)(F)F)cc2)[nH]1 (racemic) [Compound 1603] ?
0

Name the reported pest or weed control at 250 g/ha value associated with the compound CN1C[C@@H](c2ccc(C(F)(F)F)cc2)[C@H](C(=O)Nc2nccc(=O)[nH]2)C1=O (racemic) [Compound 1622]
0

Can you share its pest or weed control at 250 g/ha? I mean this compound: CCc1cc([C@@H]2CN(C)C(=O)[C@H]2C(=O)Nc2cccc(F)c2C)ccc1Cl (racemic) [Compound 1804]
30
